Target: T1, EsCas13d, nuclease-dead (Eubacterium siraeum, UniProt B0MS50, R295A;H300A;R849A;H854A)
T1 sequence: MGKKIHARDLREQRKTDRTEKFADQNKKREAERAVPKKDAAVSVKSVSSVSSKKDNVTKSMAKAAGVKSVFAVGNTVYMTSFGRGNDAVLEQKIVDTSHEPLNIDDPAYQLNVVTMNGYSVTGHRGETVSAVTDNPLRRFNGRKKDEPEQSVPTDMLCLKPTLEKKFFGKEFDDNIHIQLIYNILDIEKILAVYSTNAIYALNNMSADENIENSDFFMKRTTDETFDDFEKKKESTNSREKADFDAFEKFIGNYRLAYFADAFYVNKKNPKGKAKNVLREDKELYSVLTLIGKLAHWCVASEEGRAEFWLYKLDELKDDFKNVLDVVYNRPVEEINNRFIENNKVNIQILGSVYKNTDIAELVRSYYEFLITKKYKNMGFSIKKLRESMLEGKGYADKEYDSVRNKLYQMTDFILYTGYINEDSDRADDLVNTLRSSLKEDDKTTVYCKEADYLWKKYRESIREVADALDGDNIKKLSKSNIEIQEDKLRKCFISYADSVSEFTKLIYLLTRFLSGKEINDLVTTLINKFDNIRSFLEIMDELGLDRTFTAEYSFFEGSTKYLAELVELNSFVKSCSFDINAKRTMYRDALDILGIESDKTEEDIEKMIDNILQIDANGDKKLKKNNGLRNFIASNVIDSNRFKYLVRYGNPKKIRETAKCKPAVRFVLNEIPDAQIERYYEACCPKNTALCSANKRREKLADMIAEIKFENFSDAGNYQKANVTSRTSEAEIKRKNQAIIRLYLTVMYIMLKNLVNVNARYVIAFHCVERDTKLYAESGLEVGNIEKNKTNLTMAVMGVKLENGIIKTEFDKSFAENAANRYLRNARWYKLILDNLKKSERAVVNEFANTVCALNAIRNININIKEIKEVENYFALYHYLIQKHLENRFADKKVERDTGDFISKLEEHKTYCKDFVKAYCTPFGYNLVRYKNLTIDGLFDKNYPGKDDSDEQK
Experiment: crRNA (strand 1, pre-loaded); Mg2+; 40 mM Tris-HCl pH 7.5, 150 mM NaCl, 6 mM MgCl2, 1 mM DTT, 0.1% Tween-20, 0.2 mg/ml BSA; 25 C; 10 min per concentration, then washed
Conditions: tags: His6-TwinStrep-SUMO cleaved; N-terminal SNAP kept (SNAP-Surface 488); label: 3' end held by stalled T7 RNA polymerase
reported metric: Kd (nM)

1. target 1 insC 3' of 14,insG 3' of 11 (mixed) RNA 1: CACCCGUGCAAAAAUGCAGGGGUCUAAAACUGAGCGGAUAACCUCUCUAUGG RNA 2: GGGAAUGGAUCCACAUCUACGAAUUCGUACCAUAGAGACGGUGUAUCCGCUCACCGAGAUCGGAAGAGCACACGU : 57
2. target 3 insU 3' of 5,insA 3' of 2 (mixed) RNA 1: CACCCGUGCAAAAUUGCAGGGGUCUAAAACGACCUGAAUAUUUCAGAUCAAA RNA 2: GGGAAUGGAUCCACAUCUACGAAUUCGUUUUUGAUCUGAAAUAUUCAUGGUACUGCAGAUCGGAAGAGCACACGU : 21.2
3. target 3 G4C,A12C (mixed) RNA 1: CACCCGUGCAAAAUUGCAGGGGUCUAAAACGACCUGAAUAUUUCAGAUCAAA RNA 2: GGGAAUGGAUCCACAUCUACGAAUUCGUUUUUGAUCUGACAUAUUCACGUCUGCAGAUCGGAAGAGCACACGU : 95
4. target 1 del1,del7 (mixed) RNA 1: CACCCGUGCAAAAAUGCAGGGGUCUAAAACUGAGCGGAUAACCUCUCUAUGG RNA 2: GGGAAUGGAUCCACAUCUACGAAUUCGUACCAUAGAGAGGUUAUCGCUCCCGAGAUCGGAAGAGCACACGU : 9.7
5. target 3 insG 3' of 11,insC 3' of 3 (mixed) RNA 1: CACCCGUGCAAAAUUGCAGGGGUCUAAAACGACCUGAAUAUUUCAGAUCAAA RNA 2: GGGAAUGGAUCCACAUCUACGAAUUCGUUUUUGAUCUGAAAGUAUUCAGGCUCUGCAGAUCGGAAGAGCACACGU : 76
6. target 1 C2U,C7A (mixed) RNA 1: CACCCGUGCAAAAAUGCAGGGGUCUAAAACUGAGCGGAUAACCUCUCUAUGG RNA 2: GGGAAUGGAUCCACAUCUACGAAUUCGUACCAUAGAGAGGUUAUACGCUUACCGAGAUCGGAAGAGCACACGU : 6.8
7. target 1 insU 3' of 21,insG 3' of 1 (mixed) RNA 1: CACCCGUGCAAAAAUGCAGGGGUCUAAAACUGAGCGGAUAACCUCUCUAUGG RNA 2: GGGAAUGGAUCCACAUCUACGAAUUCGUACCUAUAGAGAGGUUAUCCGCUCAGCCGAGAUCGGAAGAGCACACGU : 24.9
8. target 1 insU 3' of 13,insA 3' of 4 (mixed) RNA 1: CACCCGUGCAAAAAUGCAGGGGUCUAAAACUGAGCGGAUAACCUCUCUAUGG RNA 2: GGGAAUGGAUCCACAUCUACGAAUUCGUACCAUAGAGAGUGUUAUCCGCAUCACCGAGAUCGGAAGAGCACACGU : 13.5
